Origin of measurements: patent US7993931B1

Experiment: Stability of oxygen-18 labeled organic acids in the sample preparation procedure (L/L extraction, MTBSTFA derivatization, GC/MS)
Details: Before L/L extraction
Overview of recorded Single labeled for various compounds

- COMPOUND: "CC(C)CC(O)C(=O)O (stereo not shown) [2-hydroxy isocaproic acid]"
  VALUE_UNIT: "%"
  Single labeled: 15.6
- COMPOUND: "O=C(O)Cc1ccc(O)cc1 [4-hydroxy phenyl acetic acid]"
  VALUE_UNIT: "%"
  Single labeled: 15.5
- COMPOUND: "O=C(O)C(O)CO (stereo not shown)"
  VALUE_UNIT: "%"
  Single labeled: 13
- COMPOUND: "CC=CC(=O)NCC(=O)O"
  VALUE_UNIT: "%"
  Single labeled: 15.5
- COMPOUND: "CCC(O)C(=O)O (stereo not shown) [oxygen-18-containing 2-OH Butyric Acid, 2-hydroxy-butyric acid]"
  VALUE_UNIT: "%"
  Single labeled: 15
- COMPOUND: "CCCC(=O)NCC(=O)O"
  VALUE_UNIT: "%"
  Single labeled: 14.5
- COMPOUND: "CC(O)C(C)C(=O)O (stereo not shown) [3-hydroxy-2-methyl butyric acid]"
  VALUE_UNIT: "%"
  Single labeled: 14.9

* * *

The entries below are paired with their reported Double labeled.
Assay: Stability of oxygen-18 labeled organic acids in the sample preparation procedure (L/L extraction, MTBSTFA derivatization, GC/MS)
Details: L/L 120 min. extraction

- COMPOUND: "CC(C)CC(O)C(=O)O (stereo not drawn) [2-hydroxy isocaproic acid]"
  Double labeled / %: 79
- COMPOUND: "CC(O)C(C)C(=O)O (stereo not drawn) [3-hydroxy-2-methyl butyric acid]"
  Double labeled / %: 85
- COMPOUND: "O=C(O)C(O)CO (stereo not drawn) [Oxygen-18-Containing Glyceric Acid, Glyceric acid]"
  Double labeled / %: 81

* * *

Assay: Stability of oxygen-18 labeled organic acids in the sample preparation procedure (L/L extraction, MTBSTFA derivatization, GC/MS)
Conditions: Before L/L extraction

- MOLECULE: "O=C(O)CCCC(=O)O"
  VALUE_UNIT: "%"
  Unlabeled: 0.1
- MOLECULE: "O=C(O)Cc1ccc(O)cc1 [4-hydroxy phenyl acetic acid]"
  VALUE_UNIT: "%"
  Unlabeled: 0.8
- MOLECULE: "CC(O)C(C)C(=O)O (stereo not drawn) [3-hydroxy-2-methyl butyric acid]"
  VALUE_UNIT: "%"
  Unlabeled: 0.1
- MOLECULE: "CC(C)CC(O)C(=O)O (stereo not drawn) [2-hydroxy isocaproic acid]"
  VALUE_UNIT: "%"
  Unlabeled: 0.4
- MOLECULE: "CC(=O)CC(=O)CCC(=O)O"
  VALUE_UNIT: "%"
  Unlabeled: 0
- MOLECULE: "CC=CC(=O)NCC(=O)O"
  VALUE_UNIT: "%"
  Unlabeled: 0.1
- MOLECULE: "O=C(O)C(O)CO (stereo not drawn)"
  VALUE_UNIT: "%"
  Unlabeled: 0
- MOLECULE: "CCC(O)C(=O)O (stereo not drawn) [oxygen-18-containing 2-OH Butyric Acid, 2-hydroxy-butyric acid]"
  VALUE_UNIT: "%"
  Unlabeled: 1
- MOLECULE: "CCCC(=O)NCC(=O)O"
  VALUE_UNIT: "%"
  Unlabeled: 0.5

* * *

Assay: Stability of oxygen-18 labeled organic acids in the sample preparation procedure (L/L extraction, MTBSTFA derivatization, GC/MS)
Conditions: L/L 120 min. extraction
Quick reference: Unlabeled of the listed items.

- COMPOUND: "CC(=O)CC(=O)CCC(=O)O"
  Unlabeled: "0.2%"
- COMPOUND: "O=C(O)C(O)CO (stereo not shown)"
  Unlabeled: "2.4%"
- COMPOUND: "CC=CC(=O)NCC(=O)O"
  Unlabeled: "1.6%"
- COMPOUND: "CC(O)C(C)C(=O)O (stereo not shown) [3-hydroxy-2-methyl butyric acid]"
  Unlabeled: "0.3%"

* * *

Assay: Stability of oxygen-18 labeled organic acids in the sample preparation procedure (L/L extraction, MTBSTFA derivatization, GC/MS)
Conditions: L/L 80 min. extraction
Recorded Single labeled values for a group of compounds are listed next.

- COMPOUND: "CC(O)C(C)C(=O)O (stereo not shown) [3-hydroxy-2-methyl butyric acid]"
  Single labeled, %: 14.9
- COMPOUND: "O=C(O)Cc1ccc(O)cc1 [4-hydroxy phenyl acetic acid]"
  Single labeled, %: 15.8
- COMPOUND: "CCC(O)C(=O)O (stereo not shown) [oxygen-18-containing 2-OH Butyric Acid, 2-hydroxy-butyric acid]"
  Single labeled, %: 17.4
- COMPOUND: "O=C(O)C(O)CO (stereo not shown)"
  Single labeled, %: 15.5
- COMPOUND: "CCCC(=O)NCC(=O)O"
  Single labeled, %: 14.8
- COMPOUND: "CC(C)CC(O)C(=O)O (stereo not shown) [2-hydroxy isocaproic acid]"
  Single labeled, %: 16.5
- COMPOUND: "CC=CC(=O)NCC(=O)O"
  Single labeled, %: 14.8

* * *

Assay: Stability of oxygen-18 labeled organic acids in the sample preparation procedure (L/L extraction, MTBSTFA derivatization, GC/MS)
Settings: Before L/L extraction; in diluted normal human urine, pH 1, ethyl-acetate extraction, GC/MS [M-57]+
PROPERTY_LABEL: Double labeled (%)

- MOLECULE: "CCCC(=O)NCC(=O)O"
  RESULT_VALUE: 85
- MOLECULE: "CC=CC(=O)NCC(=O)O"
  RESULT_VALUE: 84
- MOLECULE: "O=C(O)Cc1ccc(O)cc1 [4-hydroxy phenyl acetic acid]"
  RESULT_VALUE: 83.7
- MOLECULE: "CCC(O)C(=O)O (stereo not shown) [oxygen-18-containing 2-OH Butyric Acid, 2-hydroxy-butyric acid]"
  RESULT_VALUE: 84
- MOLECULE: "CC(C)CC(O)C(=O)O (stereo not shown) [2-hydroxy isocaproic acid]"
  RESULT_VALUE: 84
- MOLECULE: "O=C(O)C(O)CO (stereo not shown)"
  RESULT_VALUE: 87
- MOLECULE: "CC(O)C(C)C(=O)O (stereo not shown) [3-hydroxy-2-methyl butyric acid]"
  RESULT_VALUE: 85

* * *

Experiment: Stability of oxygen-18 labeled organic acids in the sample preparation procedure (L/L extraction, MTBSTFA derivatization, GC/MS)
Settings: L/L 120 min. extraction
Double labeled values, listed per item

- COMPOUND: "CC=CC(=O)NCC(=O)O [Oxygen-18-Containing Crotonyl Glycine, Crotonyl glycine]"
  VALUE_UNIT: "%"
  Double labeled: 81
- COMPOUND: "CCC(O)C(=O)O (stereo not shown) [oxygen-18-containing 2-OH Butyric Acid, 2-hydroxy-butyric acid]"
  VALUE_UNIT: "%"
  Double labeled: 80
- COMPOUND: "CCCC(=O)NCC(=O)O [Oxygen-18-Containing Butyryl Glycine, Butyryl glycine]"
  VALUE_UNIT: "%"
  Double labeled: 83
- COMPOUND: "O=C(O)Cc1ccc(O)cc1 [4-hydroxy phenyl acetic acid]"
  VALUE_UNIT: "%"
  Double labeled: 78

* * *

Assay: Stability of oxygen-18 labeled organic acids in the sample preparation procedure (L/L extraction, MTBSTFA derivatization, GC/MS)
Details: L/L 120 min. extraction
Single labeled below 20% gives n; Single labeled at or above it gives y.

- MOLECULE: "CC=CC(=O)NCC(=O)O"
  LABEL: "n"
- MOLECULE: "O=C(O)C(O)CO (stereo not shown)"
  LABEL: "n"
- MOLECULE: "CCCC(=O)NCC(=O)O"
  LABEL: "n"
- MOLECULE: "CC(C)CC(O)C(=O)O (stereo not shown) [2-hydroxy isocaproic acid]"
  LABEL: "y"
- MOLECULE: "CC(O)C(C)C(=O)O (stereo not shown) [3-hydroxy-2-methyl butyric acid]"
  LABEL: "n"

* * *

Assay: Stability of oxygen-18 labeled organic acids in the sample preparation procedure (L/L extraction, MTBSTFA derivatization, GC/MS)
Settings: L/L 120 min. extraction
The threshold is inclusive: Unlabeled of exactly 0.4% counts as Condition met; values below receive Condition not met.

- COMPOUND: "CCC(O)C(=O)O (centres unmarked) [oxygen-18-containing 2-OH Butyric Acid, 2-hydroxy-butyric acid]"
  LABEL: "Condition not met"
- COMPOUND: "O=C(O)CCCC(=O)O"
  LABEL: "Condition not met"
- COMPOUND: "CCCC(=O)NCC(=O)O"
  LABEL: "Condition met"
- COMPOUND: "O=C(O)Cc1ccc(O)cc1 [4-hydroxy phenyl acetic acid]"
  LABEL: "Condition met"

* * *

Assay: Stability of oxygen-18 labeled organic acids in the sample preparation procedure (L/L extraction, MTBSTFA derivatization, GC/MS)
Settings: L/L 80 min. extraction
This section presents molecules with their documented Unlabeled values.
PROPERTY_LABEL: Unlabeled

- MOLECULE: "CCC(O)C(=O)O (stereo not drawn) [oxygen-18-containing 2-OH Butyric Acid, 2-hydroxy-butyric acid]"
  RESULT_VALUE: "0.11%"
- MOLECULE: "CC=CC(=O)NCC(=O)O"
  RESULT_VALUE: "0.2%"
- MOLECULE: "CC(=O)CC(=O)CCC(=O)O"
  RESULT_VALUE: "0%"
- MOLECULE: "O=C(O)C(O)CO (stereo not drawn)"
  RESULT_VALUE: "0.5%"
- MOLECULE: "CC(C)CC(O)C(=O)O (stereo not drawn) [2-hydroxy isocaproic acid]"
  RESULT_VALUE: "0.5%"
- MOLECULE: "O=C(O)CCCC(=O)O"
  RESULT_VALUE: "0.2%"
- MOLECULE: "CC(O)C(C)C(=O)O (stereo not drawn) [3-hydroxy-2-methyl butyric acid]"
  RESULT_VALUE: "0.1%"
- MOLECULE: "CCCC(=O)NCC(=O)O"
  RESULT_VALUE: "0.2%"
- MOLECULE: "O=C(O)Cc1ccc(O)cc1 [4-hydroxy phenyl acetic acid]"
  RESULT_VALUE: "3.2%"
